B1: TPR 5TU (parent)
chain: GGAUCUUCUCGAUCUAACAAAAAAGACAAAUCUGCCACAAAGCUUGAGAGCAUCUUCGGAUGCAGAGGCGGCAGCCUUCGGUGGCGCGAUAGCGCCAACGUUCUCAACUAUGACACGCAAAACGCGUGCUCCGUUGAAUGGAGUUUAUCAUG

- Variants of: B1
- experiment description: polymerase ribozyme fitness, log enrichment relative to wild type (log ratio); higher = more active; in vitro selection for triplet polymerase activity
This sample holds only a part of the variants without activity.
metric: polymerase ribozyme fitness (log ratio)

[
  {
    "variant designation": "C8A C35U C43A G83C G141U",
    "recorded value": "≤ -4.2"
  },
  {
    "variant designation": "U77A C87U A98C C103A C125U U135G",
    "recorded value": "≤ -4.2"
  },
  {
    "variant designation": "A97G G141C",
    "recorded value": -1.86
  }
]

Query: # polymerase ribozyme fitness (log ratio) lookup, item A37U G58U C96U C118G U146C
Result: -3.08

Query: # polymerase ribozyme fitness (log ratio) lookup, item A12U U144G
Result: 0.918

Query: # polymerase ribozyme fitness (log ratio) lookup, item C38A G86C
Result: -3.27

Query: # polymerase ribozyme fitness (log ratio) lookup, item A52C U53A G86A C87U C105A A106U
Result: ≤ -4.2
